target: PI3K p110 beta/p85 alpha (Homo sapiens); test: Inhibition of N-terminal His6-tagged recombinant full-length human p110beta/untagged recombinant full length p85alpha expressed in baculovirus infected Sf21 cells using phosphatidylinositol as substrate in presence of gamma-32P-ATP after 5 mins by thin layer chromatographic method
Sequence (P27986 whole entry): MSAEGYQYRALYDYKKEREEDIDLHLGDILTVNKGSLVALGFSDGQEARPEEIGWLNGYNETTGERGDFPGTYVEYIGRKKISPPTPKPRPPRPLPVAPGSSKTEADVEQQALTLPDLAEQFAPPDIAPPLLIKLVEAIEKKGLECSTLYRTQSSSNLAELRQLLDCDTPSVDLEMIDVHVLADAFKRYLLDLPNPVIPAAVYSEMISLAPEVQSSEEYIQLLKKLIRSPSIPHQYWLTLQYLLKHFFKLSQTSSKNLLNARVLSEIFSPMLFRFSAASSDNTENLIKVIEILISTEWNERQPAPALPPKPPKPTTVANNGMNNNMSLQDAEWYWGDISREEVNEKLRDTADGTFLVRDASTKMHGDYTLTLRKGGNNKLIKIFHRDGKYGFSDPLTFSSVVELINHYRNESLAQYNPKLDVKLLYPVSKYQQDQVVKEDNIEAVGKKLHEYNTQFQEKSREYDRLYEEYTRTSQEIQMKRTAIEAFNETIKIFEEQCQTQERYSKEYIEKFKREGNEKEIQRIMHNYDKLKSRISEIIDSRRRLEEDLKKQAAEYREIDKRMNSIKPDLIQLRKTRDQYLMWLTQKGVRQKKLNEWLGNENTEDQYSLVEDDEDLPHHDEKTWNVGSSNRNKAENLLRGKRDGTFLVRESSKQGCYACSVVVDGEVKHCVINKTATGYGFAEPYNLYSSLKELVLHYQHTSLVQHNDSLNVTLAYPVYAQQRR
Sequence (P42338 whole entry): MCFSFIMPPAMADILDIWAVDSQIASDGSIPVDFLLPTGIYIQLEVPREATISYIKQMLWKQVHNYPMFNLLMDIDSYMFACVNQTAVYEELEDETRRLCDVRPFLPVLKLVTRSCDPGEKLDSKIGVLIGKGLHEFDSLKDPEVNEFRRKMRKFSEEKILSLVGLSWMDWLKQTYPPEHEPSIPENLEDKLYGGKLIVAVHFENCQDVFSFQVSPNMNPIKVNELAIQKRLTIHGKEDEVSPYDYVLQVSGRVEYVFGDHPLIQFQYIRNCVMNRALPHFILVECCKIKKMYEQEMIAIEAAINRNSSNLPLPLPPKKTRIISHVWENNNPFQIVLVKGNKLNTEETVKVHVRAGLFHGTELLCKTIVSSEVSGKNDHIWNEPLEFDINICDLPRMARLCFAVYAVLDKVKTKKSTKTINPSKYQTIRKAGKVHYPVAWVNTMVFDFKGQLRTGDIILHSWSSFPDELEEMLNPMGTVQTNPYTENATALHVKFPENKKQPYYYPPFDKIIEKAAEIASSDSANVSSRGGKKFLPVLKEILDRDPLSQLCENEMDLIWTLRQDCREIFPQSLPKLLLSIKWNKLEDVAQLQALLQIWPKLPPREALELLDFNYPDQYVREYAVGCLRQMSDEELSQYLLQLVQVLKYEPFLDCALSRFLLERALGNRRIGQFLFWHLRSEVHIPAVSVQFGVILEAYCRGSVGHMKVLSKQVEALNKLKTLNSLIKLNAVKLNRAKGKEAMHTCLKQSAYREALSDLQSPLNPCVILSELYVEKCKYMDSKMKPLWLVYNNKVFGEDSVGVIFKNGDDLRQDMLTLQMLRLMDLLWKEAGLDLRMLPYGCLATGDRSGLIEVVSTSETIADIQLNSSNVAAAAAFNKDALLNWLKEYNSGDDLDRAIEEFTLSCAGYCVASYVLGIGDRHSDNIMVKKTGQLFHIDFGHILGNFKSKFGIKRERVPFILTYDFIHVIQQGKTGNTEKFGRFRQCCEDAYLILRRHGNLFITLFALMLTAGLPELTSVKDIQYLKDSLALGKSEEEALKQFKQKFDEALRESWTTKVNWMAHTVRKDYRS
Attribute: IC50

>>> observedresult("Cc1cccc2cc(Cn3nc(-c4ccc(Cl)c(O)c4)c4c(N)ncnc43)n(-c3ccccc3F)c(=O)c12")
"> 10 µM"
>>> observedresult("Cc1cccc2cc(Cn3nc(-c4cc(O)cc(F)c4)c4c(N)ncnc43)n(-c3ccccc3OCCN3CCOCC3)c(=O)c12")
"< 10 µM"
>>> observedresult("Cc1cccnc1-n1c(Cn2nc(C#C[C@@H](C)O)c3c(N)ncnc32)cc2cccc(C)c2c1=O")
"> 10 µM"

// field: IC50; key: Cc1cccc2cc(C(C)Nc3ncnc4[nH]cnc34)n(-c3ccccc3F)c(=O)c12 (stereo unspecified) ; value = < 10 µM

// field: IC50; key: `CC(=O)Nc1nc2ccc(-c3nn(Cc4cc5cccc(C)c5c(=O)n4-c4ccccc4C)c4ncnc(N)c34)cc2s1` ; value = < 10 µM

// field: IC50; key: `Cc1cccc2cc(Cn3nc(C#C[C@@H](C)O)c4c(N)ncnc43)n(-c3ccccc3Cl)c(=O)c12` ; value = > 10 µM

====

Attribute: pIC50
target: Phosphatidylinositol 4,5-bisphosphate 3-kinase catalytic subunit gamma isoform (Homo sapiens, UniProt P48736); assay: Inhibition of recombinant human C-terminal His6-tagged p110gamma expressed in insect cells using phosphatidylinositol as substrate in presence of gamma-32P-ATP after 5 mins by thin layer chromatographic method
Sequence (P48736 whole entry, canonical isoform): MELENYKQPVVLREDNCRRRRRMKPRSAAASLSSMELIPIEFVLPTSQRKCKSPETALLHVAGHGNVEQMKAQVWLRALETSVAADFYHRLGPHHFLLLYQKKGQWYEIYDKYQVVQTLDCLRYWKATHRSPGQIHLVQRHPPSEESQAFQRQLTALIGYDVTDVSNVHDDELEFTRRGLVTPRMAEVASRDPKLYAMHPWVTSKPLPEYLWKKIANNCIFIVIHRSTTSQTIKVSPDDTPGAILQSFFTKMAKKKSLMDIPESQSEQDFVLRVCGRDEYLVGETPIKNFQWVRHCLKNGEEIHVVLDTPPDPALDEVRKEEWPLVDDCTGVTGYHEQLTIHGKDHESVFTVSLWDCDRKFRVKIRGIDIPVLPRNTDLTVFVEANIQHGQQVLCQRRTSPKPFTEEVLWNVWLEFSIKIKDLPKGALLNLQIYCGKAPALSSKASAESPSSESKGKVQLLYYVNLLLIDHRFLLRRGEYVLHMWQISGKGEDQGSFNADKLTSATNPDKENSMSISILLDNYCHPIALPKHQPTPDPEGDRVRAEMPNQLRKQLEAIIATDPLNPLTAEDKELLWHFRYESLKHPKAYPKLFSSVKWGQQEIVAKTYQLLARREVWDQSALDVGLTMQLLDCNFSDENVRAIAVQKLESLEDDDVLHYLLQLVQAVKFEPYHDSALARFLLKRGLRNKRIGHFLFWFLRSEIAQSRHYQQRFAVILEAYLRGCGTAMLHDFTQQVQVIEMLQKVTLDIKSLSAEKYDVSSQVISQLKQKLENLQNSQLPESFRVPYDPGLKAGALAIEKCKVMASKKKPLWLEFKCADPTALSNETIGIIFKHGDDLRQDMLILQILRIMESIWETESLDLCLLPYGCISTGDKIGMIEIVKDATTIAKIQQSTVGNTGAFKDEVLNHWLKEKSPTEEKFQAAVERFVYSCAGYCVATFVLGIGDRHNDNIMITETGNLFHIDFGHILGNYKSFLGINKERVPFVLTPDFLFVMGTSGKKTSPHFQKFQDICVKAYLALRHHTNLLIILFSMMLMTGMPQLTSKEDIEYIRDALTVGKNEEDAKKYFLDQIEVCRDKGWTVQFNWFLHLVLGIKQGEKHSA
pIC50: −log10 of the molar value.

>>> observedresult("Cc1cccc2cc(Cn3nc(-c4ccc5oc(N)nc5c4)c4c(N)ncnc43)n(C3CCC3)c(=O)c12")
"> 7.00"

// field: pIC50; key: `Cc1ccccc1-n1c(Cn2nc(-c3ccc(Cl)cc3)c3c(N)ncnc32)cc2cccc(C)c2c1=O` ; value = > 6.00

// field: pIC50; key: `Cc1cccc2cc(Cn3nc(CF)c4c(N)ncnc43)n(-c3ccccc3)c(=O)c12` ; value = > 7.00

// field: pIC50; key: `Cc1cccnc1-n1c(Cn2nc(Br)c3c(N)ncnc32)cc2cccc(C)c2c1=O` ; value = > 5.00

// field: pIC50; key: `Cc1cccc2cc(Cn3nc(C#C[C@@H](C)O)c4c(N)ncnc43)n(-c3ccccc3O)c(=O)c12` ; value = > 5.00

====

molecular target: PI3K p110 beta/p85 alpha (Homo sapiens); assay: Inhibition of N-terminal His6-tagged recombinant full-length human p110beta/untagged recombinant full length p85alpha expressed in baculovirus infected Sf21 cells using phosphatidylinositol as substrate in presence of gamma-32P-ATP after 5 mins by thin layer chromatographic method
measuredParameter: IC50

Past entries and their recorded results:
>>> observedresult("Cc1cccc2cc([C@H](C)Nc3ncnc4[nH]cc(Br)c34)n(-c3ccccc3)c(=O)c12")
"< 0.1 µM"
>>> observedresult("Cc1ccccc1-n1c(Cn2nc(-c3ccc(O)cc3)c3c(N)ncnc32)cc2cccc(C)c2c1=O")
"> 10 µM"
>>> observedresult("COc1ccccc1-n1c(Cn2nc(I)c3c(N)ncnc32)cc2cccc(C)c2c1=O")
"> 10 µM"

// field: IC50; key: `COc1ccccc1-n1c(Cn2nc(C#C[C@@H](C)O)c3c(N)ncnc32)cc2cccc(C)c2c1=O` ; value = > 10 µM

// field: IC50; key: `Cc1cccc2cc(Cn3nc(I)c4c(N)ncnc43)n(-c3ccccc3Cl)c(=O)c12` ; value = > 10 µM

// field: IC50; key: `Cc1cccc2cc(Cn3nc(-c4cn[nH]c4)c4c(N)ncnc43)n(-c3cccc(F)c3)c(=O)c12` ; value = > 10 µM
